- measured.target: SIRT1 (Homo sapiens, UniProt Q96EB6)
- Sequence (Q96EB6 1-747): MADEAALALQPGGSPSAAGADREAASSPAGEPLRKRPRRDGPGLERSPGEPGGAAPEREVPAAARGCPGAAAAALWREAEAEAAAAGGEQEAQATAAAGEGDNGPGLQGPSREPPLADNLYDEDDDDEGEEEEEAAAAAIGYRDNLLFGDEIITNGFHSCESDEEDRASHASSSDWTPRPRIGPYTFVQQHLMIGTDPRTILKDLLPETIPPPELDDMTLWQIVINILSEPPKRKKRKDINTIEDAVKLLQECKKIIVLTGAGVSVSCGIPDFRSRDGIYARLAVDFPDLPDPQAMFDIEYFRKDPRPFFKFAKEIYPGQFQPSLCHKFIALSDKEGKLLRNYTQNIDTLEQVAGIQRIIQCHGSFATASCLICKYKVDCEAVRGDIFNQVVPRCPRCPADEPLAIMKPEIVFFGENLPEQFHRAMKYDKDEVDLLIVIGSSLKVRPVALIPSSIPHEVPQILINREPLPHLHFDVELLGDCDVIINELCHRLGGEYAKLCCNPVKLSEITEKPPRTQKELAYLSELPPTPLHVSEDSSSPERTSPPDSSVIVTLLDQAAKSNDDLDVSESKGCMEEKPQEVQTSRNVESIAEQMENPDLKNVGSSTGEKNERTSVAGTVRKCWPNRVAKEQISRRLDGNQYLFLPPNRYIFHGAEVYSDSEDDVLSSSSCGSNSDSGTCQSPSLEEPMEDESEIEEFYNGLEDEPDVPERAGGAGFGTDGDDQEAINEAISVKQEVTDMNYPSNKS
- method.notes: Trp mass spectrometry assay (SIRT1 activation)
- Format: biochemical
- assay.setup: concentration of test compound that results in 150% activation of SIRT1; Trp peptide substrate

compound: CC(C)(C)OC(=O)N1CCCc2ccc(NC(=O)N3c4nc(-c5cccc(C(F)(F)F)c5)ccc4N4CC[C@H]3C4)cc21 [Example 610]
measured.target: SIRT1 (Homo sapiens, UniProt Q96EB6)
Tryp AVG EC1.5 (μM): B (EC1.5 1-25 μM)
//
compound: O=C(Nc1ccccn1)N1c2nc(-c3cccc(Cl)c3)ccc2N2CCC[C@H]1C2 [Example 387]
measured.target: SIRT1 (Homo sapiens, UniProt Q96EB6)
Tryp AVG EC1.5 (μM): A (EC1.5<1 μM)
//
compound: CS(=O)(=O)c1cncc(-c2ccc3c(n2)N(C(=O)Nc2ccccn2)[C@H]2CCCN3C2)c1 [Example 375]
measured.target: SIRT1 (Homo sapiens, UniProt Q96EB6)
Tryp AVG EC1.5 (μM): A (EC1.5<1 μM)
//
compound: O=C(Nc1ccccn1)N1c2nc(-c3cc(F)cc(F)c3)ccc2N2CC[C@H]1C2 [Example 344]
measured.target: SIRT1 (Homo sapiens, UniProt Q96EB6)
Tryp AVG EC1.5 (μM): A (EC1.5<1 μM)
//
compound: O=C(Nc1ccccn1)N1c2nc(N3CCCC(C(F)(F)F)C3)ccc2N2CCC[C@H]1C2 (stereo partly shown) [Example 286]
measured.target: SIRT1 (Homo sapiens, UniProt Q96EB6)
Tryp AVG EC1.5 (μM): A (EC1.5<1 μM)
//
compound: O=C(Nc1cccnn1)N1c2nc(-c3cccc(N4CCOCC4)c3)ccc2N2CCC[C@H]1C2 [Example 539]
measured.target: SIRT1 (Homo sapiens, UniProt Q96EB6)
Tryp AVG EC1.5 (μM): B (EC1.5 1-25 μM)
//
compound: O=C(Nc1ccncn1)N1c2nc(-c3cncc(Cl)c3)ccc2N2CC[C@H]1C2 [Example 249]
measured.target: SIRT1 (Homo sapiens, UniProt Q96EB6)
Tryp AVG EC1.5 (μM): B (EC1.5 1-25 μM)
//
compound: Cc1cc(-c2ccc3c(n2)N(C(=O)Nc2cncc(C)n2)[C@H]2CCN3C2)ccn1 [Example 503]
measured.target: SIRT1 (Homo sapiens, UniProt Q96EB6)
Tryp AVG EC1.5 (μM): A (EC1.5<1 μM)
//
compound: N#Cc1cncc(-c2ccc3c(n2)N(C(=O)Nc2ccccn2)[C@H]2CCN3C2)c1 [Example 373]
measured.target: SIRT1 (Homo sapiens, UniProt Q96EB6)
Tryp AVG EC1.5 (μM): A (EC1.5<1 μM)
//
compound: O=C(Nc1cnccn1)N1c2nc(-c3ccc(Cl)c(Cl)c3)ccc2N2CC[C@H]1C2 [Example 461]
measured.target: SIRT1 (Homo sapiens, UniProt Q96EB6)
Tryp AVG EC1.5 (μM): A (EC1.5<1 μM)
//
compound: Cc1cc(-c2ccc3c(n2)N(C(=O)Nc2cncc(F)c2)[C@H]2CCN3C2)ccn1 [Example 238]
measured.target: SIRT1 (Homo sapiens, UniProt Q96EB6)
Tryp AVG EC1.5 (μM): B (EC1.5 1-25 μM)
//
compound: Cc1cc(-c2ccc3c(n2)N(C(=O)Nc2cccc(-c4cnco4)c2)[C@H]2CCN3C2)ccn1 [Example 480]
measured.target: SIRT1 (Homo sapiens, UniProt Q96EB6)
Tryp AVG EC1.5 (μM): A (EC1.5<1 μM)
//
compound: O=C(Nc1cnccn1)N1c2nc(-c3ccnc(F)c3)ccc2N2CC[C@H]1C2 [Example 284]
measured.target: SIRT1 (Homo sapiens, UniProt Q96EB6)
Tryp AVG EC1.5 (μM): B (EC1.5 1-25 μM)
//
compound: O=C(Nc1ccncc1)N1c2nc(N3CCCC(C(F)(F)F)C3)ccc2N2CCC[C@H]1C2 (stereo partly shown) [Example 360]
measured.target: SIRT1 (Homo sapiens, UniProt Q96EB6)
Tryp AVG EC1.5 (μM): A (EC1.5<1 μM)
//
compound: O=C(Nc1cnccn1)N1c2nc(-c3cncc(C(F)(F)F)c3)ccc2N2CC[C@H]1C2 [Example 278]
measured.target: SIRT1 (Homo sapiens, UniProt Q96EB6)
Tryp AVG EC1.5 (μM): A (EC1.5<1 μM)

----------
- measured.target: SIRT1 (Homo sapiens)
- Sequence (Q96EB6 1-747): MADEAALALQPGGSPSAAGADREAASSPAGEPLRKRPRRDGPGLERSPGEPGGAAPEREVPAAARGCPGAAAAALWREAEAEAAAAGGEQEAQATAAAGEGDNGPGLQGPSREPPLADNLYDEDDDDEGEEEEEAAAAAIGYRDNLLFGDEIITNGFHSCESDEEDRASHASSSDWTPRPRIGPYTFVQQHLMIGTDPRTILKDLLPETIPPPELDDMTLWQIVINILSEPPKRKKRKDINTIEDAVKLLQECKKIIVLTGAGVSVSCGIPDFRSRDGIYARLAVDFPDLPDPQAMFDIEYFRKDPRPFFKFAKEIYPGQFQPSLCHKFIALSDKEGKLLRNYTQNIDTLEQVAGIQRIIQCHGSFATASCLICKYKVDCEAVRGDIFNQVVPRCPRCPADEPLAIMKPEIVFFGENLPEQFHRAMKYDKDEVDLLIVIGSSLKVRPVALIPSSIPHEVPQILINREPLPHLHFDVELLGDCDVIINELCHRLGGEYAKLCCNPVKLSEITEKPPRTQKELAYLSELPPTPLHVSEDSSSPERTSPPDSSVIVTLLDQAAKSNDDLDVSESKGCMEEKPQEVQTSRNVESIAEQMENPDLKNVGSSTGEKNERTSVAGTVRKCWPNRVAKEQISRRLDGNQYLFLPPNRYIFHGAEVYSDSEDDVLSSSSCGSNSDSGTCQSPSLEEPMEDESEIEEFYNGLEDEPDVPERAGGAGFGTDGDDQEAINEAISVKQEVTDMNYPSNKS
- method.notes: Trp mass spectrometry assay (SIRT1 activation)
- Type: biochemical
- assay.setup: concentration of test compound that results in 150% activation of SIRT1; Trp peptide substrate

structure.notation: COc1cc(NC(=O)N2c3nc(-c4cccc(N5CC[C@H](F)C5)c4)ccc3N3CC[C@H]2C3)ncn1
measured.target: SIRT1 (Homo sapiens)
Tryp AVG EC1.5 (μM): B (EC1.5 1-25 μM)
//
structure.notation: CC(C)(C)OC(=O)N1CCc2ccc(NC(=O)N3c4nc(-c5cccc(C(F)(F)F)c5)ccc4N4CC[C@H]3C4)cc2C1
measured.target: SIRT1 (Homo sapiens)
Tryp AVG EC1.5 (μM): B (EC1.5 1-25 μM)
